Every entry's value here was drawn from PubChem BioAssay AID1851.

# assay.system: Cytochrome P450 2C9 (Homo sapiens) (UniProt P11712)
# Sequence (P11712 whole entry, looked up): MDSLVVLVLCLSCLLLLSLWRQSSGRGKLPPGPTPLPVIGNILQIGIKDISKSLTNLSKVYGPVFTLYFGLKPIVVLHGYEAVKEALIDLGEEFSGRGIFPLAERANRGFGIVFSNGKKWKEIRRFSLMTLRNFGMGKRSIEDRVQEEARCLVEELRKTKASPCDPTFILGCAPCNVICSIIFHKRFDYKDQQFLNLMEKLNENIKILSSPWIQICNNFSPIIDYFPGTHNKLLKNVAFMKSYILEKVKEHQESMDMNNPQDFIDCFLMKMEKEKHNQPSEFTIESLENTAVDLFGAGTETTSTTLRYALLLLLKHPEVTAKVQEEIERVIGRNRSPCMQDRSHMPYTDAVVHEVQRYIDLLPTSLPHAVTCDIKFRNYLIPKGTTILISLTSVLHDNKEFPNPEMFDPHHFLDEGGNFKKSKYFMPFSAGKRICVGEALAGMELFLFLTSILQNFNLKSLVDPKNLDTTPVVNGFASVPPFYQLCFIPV
# method.description: Cytochrome panel assay with activity outcomes
# condition.set: recombinant CYP, pro-luciferin dealkylation, luminescence, p450-cyp2c9; series mostly up to 57.1 µM
# Experimental: The P450 gene superfamily is involved in the metabolism and clearance of xenobiotics. This assay used various human CYP P450 isozymes to measure the dealkylation of various pro-luciferin substrates to luciferin. The luciferin is then measured by luminescence after the addition of a luciferase detection reagent. […] Inhibitors and some substrates limit the production of luciferin, and decrease measured luminescence. […] 8, Detection, 1 sec, ViewLux luminescent read […]
The campaign covered roughly 16,000 compounds. About 4,000 (25%) were called active. Another 26% or so got no clear call; they are omitted. Calls come from the whole dose curve; as a rule, active = well fitted curve in the direction sought with a large enough effect; inconclusive = small, poorly fitted or top-dose-only effect, or effect the other way; inactive = no such curve, though single readings can be large or run the other way. A selection follows.
Choose the fitting class; nothing outside active, inactive is accepted.

A selection of reference data follows.
[
  {
    "molecule": "O=[N+]([O-])c1ccc2c(N=Nc3ccc4ccccc4c3O)c(O)cc(S(=O)(=O)O)c2c1",
    "classification": "active"
  },
  {
    "molecule": "COc1ccc([C@H]2Sc3ccccc3N(CCN(C)C)C(=O)[C@H]2OC(C)=O)cc1",
    "classification": "inactive"
  },
  {
    "molecule": "COCCCNC(=O)C1C2C=CC3(CN(Cc4ccc(C)cc4)C(=O)C13)O2 (configuration not stated)",
    "classification": "inactive"
  },
  {
    "molecule": "Nc1ccc(N(c2ccccc2)c2ccc(N)cc2)cc1",
    "classification": "active"
  },
  {
    "molecule": "Cc1nc2nc[nH]n2c(=O)c1NC(=O)CC12CC3CC(CC(C3)C1)C2",
    "classification": "inactive"
  }
]

Short answer needed: outcome of this test for CCC(=O)NC(=S)Nc1ccc(NC(=O)COc2ccc(Cl)cc2Cl)cc1 ?
inactive

Recorded test outcome, item O=C(COc1ccccc1Cl)NC(=S)Nc1cccc(NC(=O)c2ccccc2Cl)c1
active

----------
# assay.system: Cytochrome P450 2C9 (Homo sapiens)
# method.description: Cytochrome panel assay with activity outcomes
# condition.set: recombinant CYP, pro-luciferin dealkylation, luminescence, p450-cyp2c9; series mostly up to 57.1 µM
The whole screen tested about 16,000 compounds, of which about 4,000 (25%) were called active. Another 26% or so got no clear call; they are omitted. The call rests on the fitted dose curve; in most records, active means well fitted curve in the direction sought with a large enough effect; inconclusive means small, poorly fitted or top-dose-only effect, or effect the other way; inactive means no such curve, though single readings can be large or run the other way. The list is a sample of the results.
Thanks in advance; please answer with one of these: active, inactive

Known results for compounds:
[
  {
    "compound": "Cc1cc(C(=O)NCc2ccccc2)no1",
    "classification": "inactive"
  },
  {
    "compound": "COc1ccc(N(C(=O)COc2ccccc2OC)S(=O)(=O)c2ccc(C)cc2)cc1",
    "classification": "active"
  },
  {
    "compound": "COc1ccc(CNC(=O)c2csc(Cc3ccc(Cl)cc3)n2)cc1",
    "classification": "active"
  },
  {
    "compound": "COc1ccc(CNC(=O)C2CSC(=O)C2)cc1 (centres undefined)",
    "classification": "inactive"
  },
  {
    "compound": "O=C(Nc1cccc(F)c1)N1CC2(CCN(C(=O)c3csnn3)CC2)C1",
    "classification": "inactive"
  }
]

In the following, a different compound is considered.
Any idea what this test logged for CC(=O)NCCC(=O)Nc1sc2c(c1-c1nc3ccccc3[nH]1)CCCC2 ?
active
